Examples of compounds with documented MIC follow.
system: Staphylococcus aureus; assay: Antimicrobial activity against Staphylococcus aureus ST22 11B086169 incubated for 20 hrs by microdilution method; type: functional; details: ST22 11B086169, 20 h
measuredMetric: MIC (µg/mL)

linenotation=O=[N+]([O-])c1ccc(O)c(CNc2ccccc2Cl)c1 measuredmetric=MIC numericvalue=4
linenotation=Cc1onc(-c2ccccc2)c1C(=O)N[C@@H]1C(=O)N2[C@@H]1SC(C)(C)[C@@H]2C(=O)O measuredmetric=MIC numericvalue=64
linenotation=O=[N+]([O-])c1ccc(O)c(CNc2ccccc2C(F)(F)F)c1 measuredmetric=MIC numericvalue=4
linenotation=O=[N+]([O-])c1ccc(O)c(CNc2cccc(Cl)c2)c1 measuredmetric=MIC numericvalue=4
linenotation=C#Cc1cccc(NCc2cc([N+](=O)[O-])cc(Br)c2O)c1 measuredmetric=MIC numericvalue=4
linenotation=CC(C)(C)c1ccc(NCc2cc([N+](=O)[O-])ccc2O)cc1 measuredmetric=MIC numericvalue=4
linenotation=CC(C)(C)c1ccccc1NCc1cc([N+](=O)[O-])ccc1O measuredmetric=MIC numericvalue=2
linenotation=CC(C)(C)c1cccc(NCc2cc([N+](=O)[O-])ccc2O)c1 measuredmetric=MIC numericvalue=8
linenotation=O=C(O)c1cn(C2CC2)c2cc(N3CCNCC3)c(F)cc2c1=O measuredmetric=MIC numericvalue=4

* * *

system: Staphylococcus aureus; assay: Antimicrobial activity against CA-methicillin-resistant Staphylococcus aureus W48 ST217 incubated for 20 hrs by microdilution method; conditions: W48 ST217, 20 h
Examples of compounds with documented MIC follow.
measuredMetric: MIC (µg/mL)

compound=CC(C)(C)c1ccccc1NCc1cc([N+](=O)[O-])ccc1O measuredmetric=MIC unitslabel=µg/mL numericvalue=2
compound="O=C(O)c1cn(C2CC2)c2cc(N3CCNCC3)c(F)cc2c1=O [CIPROFLOXACIN]" measuredmetric=MIC unitslabel=µg/mL numericvalue=4
compound=O=[N+]([O-])c1ccc(O)c(CNc2ccccc2Cl)c1 measuredmetric=MIC unitslabel=µg/mL numericvalue=4
compound=O=[N+]([O-])c1ccc(O)c(CNc2ccccc2C(F)(F)F)c1 measuredmetric=MIC unitslabel=µg/mL numericvalue=2
compound=C#Cc1cccc(NCc2cc([N+](=O)[O-])cc(Br)c2O)c1 measuredmetric=MIC unitslabel=µg/mL numericvalue=2

* * *

test: Therapeutic index, ratio of CC50 for human A549 cells to 1/2 times MIC for Staphylococcus aureus ATCC 25923; format: toxicity; settings: read-out: TI
Label Y when selectivity ratio < 8; otherwise N.

linenotation=O=[N+]([O-])c1ccc(O)c(/C=N/c2ccccc2Cl)c1 answerlabel=N
linenotation=O=[N+]([O-])c1ccc(O)c(/C=N/c2cccc(Cl)c2)c1 answerlabel=N
linenotation=CC(C)(C)c1cccc(NCc2cc([N+](=O)[O-])ccc2O)c1 answerlabel=Y
linenotation=C#Cc1cccc(NCc2cc([N+](=O)[O-])cc(Br)c2O)c1 answerlabel=N
linenotation=O=[N+]([O-])c1ccc(O)c(CNc2ccccc2Cl)c1 answerlabel=Y
linenotation=O=[N+]([O-])c1ccc(O)c(CNc2ccccc2C(F)(F)F)c1 answerlabel=Y
linenotation=CC(C)(C)c1ccc(NCc2cc([N+](=O)[O-])ccc2O)cc1 answerlabel=N

* * *

system: Bacillus subtilis; assay: Inhibition of N-terminal LgBiT-fused Bacillus subtilis NusB expressed in Escherichia coli BL21(DE3)pLysS interaction with C- terminal SmBiT-fused Bacillus subtilis NusE expressed in Escherichia coli BL21(DE3)pLysS at 100 uM preincubated for 10 mins followed by NusE addition and measured after 10 mins by nano-glo luciferase assay relative to control
Examples of molecules with documented inhibition follow.
measuredMetric: inhibition (%)

linenotation=CC(C)(C)c1ccccc1/N=C/c1cc([N+](=O)[O-])ccc1O systemundertest="Bacillus subtilis" measuredmetric=inhibition numericvalue=16.8
linenotation=CC(C)(C)c1ccc(NCc2cc([N+](=O)[O-])ccc2O)cc1 systemundertest="Bacillus subtilis" measuredmetric=inhibition numericvalue=10.8
linenotation=C#Cc1cccc(NCc2cc(C#N)ccc2O)c1 systemundertest="Bacillus subtilis" measuredmetric=inhibition numericvalue=64.8
linenotation=O=[N+]([O-])c1ccc(O)c(CNc2ccc(C(F)(F)F)cc2)c1 systemundertest="Bacillus subtilis" measuredmetric=inhibition numericvalue=54.1
linenotation=O=C(O)c1cccc(NCc2cc([N+](=O)[O-])ccc2O)c1 systemundertest="Bacillus subtilis" measuredmetric=inhibition numericvalue=50.8
linenotation=CC(C)(C)c1cccc(NCc2cc([N+](=O)[O-])ccc2O)c1 systemundertest="Bacillus subtilis" measuredmetric=inhibition numericvalue=39.5
linenotation=C#Cc1cccc(NCc2cc(CC#N)ccc2O)c1 systemundertest="Bacillus subtilis" measuredmetric=inhibition numericvalue=44.7
linenotation=O=[N+]([O-])c1ccc(O)c(/C=N/c2ccccc2)c1 systemundertest="Bacillus subtilis" measuredmetric=inhibition numericvalue=39.2
linenotation=C#Cc1cccc(NCc2cc([N+](=O)[O-])ccc2O)c1 systemundertest="Bacillus subtilis" measuredmetric=inhibition numericvalue=47.7
